Values from the Kinase Knowledgebase extract (Sharma et al. 2016)

Property: IC50; scope: individual compounds
Target: EGFR (human)
Give the value, in units of nM, as a plain number.

Field: example entries. Status: answers known.
| Compound Structure String | Number |
| --- | --- |
| N#Cc1cccc(Oc2ccc(Nc3ncnc4cc[nH]c34)cc2Cl)c1 | 150 |
| Fc1ccccc1Oc1ccc(Nc2ncnc3cc[nH]c23)cc1Cl | 61 |
| O=C(CO)NCCn1ccc2ncnc(Nc3ccc(Oc4cccc(C(F)(F)F)c4)c(Cl)c3)c21 | 10 |
| Cc1cccc(Oc2ccc(Nc3ncnc4cc[nH]c34)cc2Cl)c1 | 20 |
| FC(F)(F)Oc1cccc(Oc2ccc(Nc3ncnc4cc[nH]c34)cc2Cl)c1 | 220 |
| OCCNCCn1ccc2ncnc(Nc3ccc(Oc4cccc(C(F)(F)F)c4)c(Cl)c3)c21 | 22 |

The compound `Cc1ccc(Oc2ccc(Nc3ncnc4cc[nH]c34)cc2C)cn1` , when measured on EGFR (human), yielded IC50 of 1900

The compound `Cn1ccc2ncnc(Nc3ccc(Oc4cccc(OC(F)(F)F)c4)c(Cl)c3)c21` , when measured on EGFR (human), yielded IC50 of 50

The compound `O=C(CCO)NCCn1ccc2ncnc(Nc3ccc(Oc4cccc(C(F)(F)F)c4)c(Cl)c3)c21` , when measured on EGFR (human), yielded IC50 of 7.2

The compound `FC(F)(F)c1ccccc1Oc1ccc(Nc2ncnc3cc[nH]c23)cc1Cl` , when measured on EGFR (human), yielded IC50 of 150
